Exercise: for every item that follows, state its recorded pIC50.
- Tested on: CCRF-CEM/VBL
- ASSAY_EXPLANATION: In vitro cytotoxicity, XTT assay, vinblastine resistant subline
- Format: cell-based, human
- EXPERIMENTAL_CONDITIONS: Homo sapiens, CCRF-CEM; XTT assay, 72-hr incubation
Convention used: pIC50 is expressed as -log10 of the molar concentration.

Ask: Look at this molecule and give its reported pIC50. CC(=O)O[C@H]1C(=O)[C@@]2(C)[C@H]([C@H](OC(=O)c3ccccc3)[C@]3(O)C[C@H](OC(=O)[C@H](O)[C@@H](NC(=O)c4ccccc4)c4ccccc4)C(C)=C1C3(C)C)[C@]1(OC(C)=O)CO[C@@H]1C[C@@H]2O [Taxol, reference compound]
Result: 6.37

Ask: Requested field: pIC50. Item: `CNC(=O)OCc1c(COC(=O)NC)c(-c2ccc(OC)c(OC)c2)n2c1Cc1ccccc1-2`
Result: 6.43

Ask: Name the reported pIC50 value associated with the molecule `CNC(=O)OCc1c(COC(=O)NC)c(-c2c(OC)cccc2OC)n2c1Cc1ccccc1-2`
Result: 6.16

Ask: Entry CC[C@]1(O)C[C@@H]2CN(CCc3c([nH]c4ccccc34)[C@@](C(=O)OC)(c3cc4c(cc3OC)N(C)[C@H]3[C@@](O)(C(=O)OC)[C@H](OC(C)=O)[C@]5(CC)C=CCN6CC[C@]43[C@@H]65)C2)C1 [Vinblastine, reference compound] : reported pIC50 = ?
Result: 7.11

Ask: Query (molecule): `OCc1c(CO)c(-c2ccc(Cl)cc2)n2c1Cc1ccccc1-2` ; field requested: pIC50
Result: 5.60

Ask: What measured pIC50 goes with `CNC(=O)OCc1c(COC(=O)NC)c2n(c1C)Cc1ccccc1C2` ?
Result: 7.12

###

- System: Human mammary carcinoma (MX-1) tumor cells
- ASSAY_EXPLANATION: In vitro cytotoxicity, sulforhodamine B (SRB) assay
- Type: cell-based
- EXPERIMENTAL_CONDITIONS: Homo sapiens, 72-hr incubation
- Text: Human colon carcinoma HCT-116 cells, human prostate adenocarcinoma PC-3 and adenocarcinoma SK-OV-3 cells were obtained from American Type Culture Collection (ATCC, Rockville, Md.). Human mammary carcinoma (MX-1) tumor cells were obtained from MSKCC cell bank. […]
VALUE_TYPE: pIC50
In plain terms, pIC50 is the concentration in mol/L turned into minus its base-10 logarithm.

Ask: Requested read-out: pIC50. Entry: `CNC(=O)OCc1c(COC(=O)NC)c(-c2ccccc2OC)n2c1Cc1ccccc1-2`
Result: 5.88

Ask: // lookup pIC50 for `OCc1c(CO)c(-c2ccc(F)c(F)c2)n2c1Cc1ccccc1C2`
Result: 5.18

Ask: Reported pIC50, molecule `COc1ccc(-c2c(CO)c(CO)c3n2-c2ccccc2C3)cc1OC` : ____
Result: 4.96

Ask: # input molecule: `OCc1c(CO)c(-c2ccc(Cl)cc2)n2c1Cc1ccccc1C2` ; wanted: its pIC50
Result: 5.49

Ask: Using the record for `CNC(=O)OCc1c(COC(=O)NC)c(-c2ccc(OC)c(OC)c2)n2c1Cc1ccccc1-2` , report its pIC50.
Result: 5.74

###

- Test system: CCRF-CEM/VBL
- ASSAY_EXPLANATION: In vitro cytotoxicity, XTT assay, vinblastine resistant subline
- Type: cell-based, human
- EXPERIMENTAL_CONDITIONS: Homo sapiens, CCRF-CEM; XTT assay, 72-hr incubation
class 1 if IC50 is below 90 nM. class 0 if not; exact matches included in class 0.

Ask: IC50 under 90 nM? Item: OCc1c(CO)c(-c2ccc(F)c(F)c2)n2c1Cc1ccccc1C2 [DA-1112]
Result: class 0

Ask: Field: below-cutoff. Rule: recorded IC50 strictly less than 90 nM. Subject: CCc1c(COC(=O)NC)c(COC(=O)NC)c2n1-c1ccccc1C2 [DA-1101]
Result: class 1

Ask: Determine if CNC(=O)OCc1c(COC(=O)NC)c(-c2ccc(OC)cc2)n2c1Cc1cc(OC)ccc1-2 [DA-1131] shows IC50 strictly lower than 90 nM.
Result: class 1

Ask: In the record for Cc1c(CO)c(CO)c2n1-c1ccccc1C2 [DA-1090] , is IC50 less than 90 nM?
Result: class 1

Ask: Is the reported IC50 for CNC(=O)OCc1c(COC(=O)NC)c(-c2cc(OC)c(OC)c(OC)c2)n2c1Cc1ccccc1-2 [DA-1129] strictly below 90 nM?
Result: class 0

Ask: Record Cc1c(CO)c(CO)c2n1Cc1ccccc1C2 [DA-1107] : is its IC50 strictly below 90 nM?
Result: class 0

Ask: Here's an entry: COc1ccc(-c2c(CO)c(CO)c3n2Cc2ccccc2C3)cc1 [DA-1106] . Is its IC50 below 90 nM?
Result: class 0

Ask: hey, is IC50 for OCc1c(CO)c(-c2ccc(Cl)cc2)n2c1Cc1ccccc1C2 [DA-1116] lower than 90 nM or not?
Result: class 0

Ask: # TODO verify IC50 < 90 nM strictly for this compound: CCc1c(CO)c(CO)c2n1-c1ccccc1C2 [DA-1099]
Result: class 0

Ask: hey, is IC50 for OCc1c(CO)c(-c2ccccc2)n2c1Cc1ccccc1-2 [DA-1011] lower than 90 nM or not?
Result: class 0
